Data credit: ChEMBL document CHEMBL4261490

experiment: Cytotoxicity against human HepG2 cells assessed as reduction in cell viability pretreated for 1 hr followed by DMEM addition measured after 24 hrs by alamar blue assay; format: cell-based; details: read-out: ED50
Square brackets hold non-standard residues; d marks the D form. Peptide text beside a SMILES is read from it. Gly(N-(CH2)6NH2) = NCCCCCCNCC(=O)O; Nspe = C[C@H](NCC(=O)O)c1ccccc1; Nphe = O=C(O)CNCc1ccccc1; Nlys = NCCCCNCC(=O)O
Readout Kind: CC50 at 24 h

Example results:
NCCCCCCNCC(=O)N(CC(=O)N(CC(=O)N(CCCCCCN)CC(=O)N(CC(=O)N(CC(=O)N(CCCCCCN)CC(=O)N(CC(=O)N(CC(=O)N(CCCCCCN)CC(=O)N(CC(=O)N(CC(N)=O)Cc1ccccc1)Cc1ccccc1)Cc1ccccc1)Cc1ccccc1)Cc1ccccc1)Cc1ccccc1)Cc1ccccc1)Cc1ccccc1 (H-[Gly(N-(CH2)6NH2)][Nphe][Nphe][Gly(N-(CH2)6NH2)][Nphe][Nphe][Gly(N-(CH2)6NH2)][Nphe][Nphe][Gly(N-(CH2)6NH2)][Nphe][Nphe]-NH2)	> 100 µM
COc1ccc(CN(CC(N)=O)C(=O)CN(Cc2ccc(OC)cc2)C(=O)CN(CCCCN)C(=O)CN(Cc2ccc(OC)cc2)C(=O)CN(Cc2ccc(OC)cc2)C(=O)CN(CCCCN)C(=O)CN(Cc2ccc(OC)cc2)C(=O)CN(Cc2ccc(OC)cc2)C(=O)CN(CCCCN)C(=O)CN(Cc2ccc(OC)cc2)C(=O)CN(Cc2ccc(OC)cc2)C(=O)CNCCCCN)cc1	> 100 µM
CC(c1ccccc1)N(CC(=O)N(CCCCN)CC(=O)N(CC(=O)N(CC(=O)N(CCCCN)CC(=O)N(CC(=O)N(CC(N)=O)[C@@H](C)c1ccccc1)[C@@H](C)c1ccccc1)Cc1ccc(F)cc1)Cc1ccc(F)cc1)C(=O)CN(C(=O)CNCCCCN)[C@@H](C)c1ccccc1 (single isomer, unassigned)	43 µM
C[C@@H](c1ccccc1)N(CC(N)=O)C(=O)CN(C(=O)CN(CCN)C(=O)CN(C(=O)CN(C(=O)CNCCN)[C@@H](C)c1ccccc1)[C@@H](C)c1ccccc1)[C@@H](C)c1ccccc1	> 100 µM
C[C@@H](c1ccccc1)N(CC(N)=O)C(=O)CN(C(=O)CN(CCCCN)C(=O)CN(C(=O)CN(C(=O)CNCCCCN)[C@@H](C)c1ccccc1)[C@@H](C)c1ccccc1)[C@@H](C)c1ccccc1 (H-[Nlys][Nspe][Nspe][Nlys][Nspe][Nspe]-NH2)	> 100 µM

Output measured CC50 at 24 h for this item: C[C@@H](c1ccccc1)N(CC(N)=O)C(=O)CN(C(=O)CN(CCCCCCN)C(=O)CN(C(=O)CN(C(=O)CNCCCCCCN)[C@@H](C)c1ccccc1)[C@@H](C)c1ccccc1)[C@@H](C)c1ccccc1
> 100 µM

Consider the compound NCCCCNCC(=O)N(CC(=O)N(CC(=O)N(CCCCN)CC(=O)N(CC(=O)N(CC(=O)N(CCCCN)CC(=O)N(CC(=O)N(CC(N)=O)Cc1ccccc1)Cc1ccccc1)Cc1ccccc1)Cc1ccccc1)Cc1ccccc1)Cc1ccccc1 . State its measured CC50 at 24 h.
> 100 µM

Kindly indicate its recorded CC50 at 24 h. Item: CCCCCNCC(=O)N(CC(=O)N(CC(=O)N(CCCCC)CC(=O)N(CC(=O)N(CC(=O)N(CCCCN)CC(=O)N(CC(=O)N(CC(=O)N(CCCCN)CC(=O)N(CC(=O)N(CC(N)=O)[C@@H](C)c1ccccc1)[C@@H](C)c1ccccc1)C(C)c1ccccc1)[C@@H](C)c1ccccc1)C(C)c1ccccc1)[C@@H](C)c1ccccc1)C(C)c1ccccc1)[C@@H](C)c1ccccc1 (single isomer, unassigned)
18 µM

====

assay: Selectivity index, ratio of ED50 for human HaCaT cells to MIC for Staphylococcus aureus 3R7089 strain Oxford/ATCC 9144; type: toxicity; settings: read-out: Selectivity Index
Square brackets hold non-standard residues; d marks the D form. Peptide text beside a SMILES is read from it. N(4-F-Bzl)Gly = O=C(O)CNCc1ccc(F)cc1; Gly(N-(CH2)6NH2) = NCCCCCCNCC(=O)O; Gly(N-2-aminoethyl) = NCCNCC(=O)O; Nspe = C[C@H](NCC(=O)O)c1ccccc1; Nphe = O=C(O)CNCc1ccccc1; Nlys = NCCCCNCC(=O)O
Readout Kind: selectivity ratio
Quick one: just the number, no unit, thanks!

For orientation, consider the following solved cases.
NCCCCCCNCC(=O)N(CC(=O)N(CC(=O)N(CCCCCCN)CC(=O)N(CC(=O)N(CC(=O)N(CCCCCCN)CC(=O)N(CC(=O)N(CC(=O)N(CCCCCCN)CC(=O)N(CC(=O)N(CC(N)=O)Cc1ccccc1)Cc1ccccc1)Cc1ccccc1)Cc1ccccc1)Cc1ccccc1)Cc1ccccc1)Cc1ccccc1)Cc1ccccc1 (H-[Gly(N-(CH2)6NH2)][Nphe][Nphe][Gly(N-(CH2)6NH2)][Nphe][Nphe][Gly(N-(CH2)6NH2)][Nphe][Nphe][Gly(N-(CH2)6NH2)][Nphe][Nphe]-NH2)	50
NCCCCNCC(=O)N(CC(=O)N(CC(=O)N(CCCCN)CC(=O)N(CC(=O)N(CC(=O)N(CCCCN)CC(=O)N(CC(=O)N(CC(=O)N(CCCCN)CC(=O)N(CC(=O)N(CC(N)=O)Cc1ccc(F)cc1)Cc1ccc(F)cc1)Cc1ccc(F)cc1)Cc1ccc(F)cc1)Cc1ccc(F)cc1)Cc1ccc(F)cc1)Cc1ccc(F)cc1)Cc1ccc(F)cc1 (H-[Nlys][N(4-F-Bzl)Gly][N(4-F-Bzl)Gly][Nlys][N(4-F-Bzl)Gly][N(4-F-Bzl)Gly][Nlys][N(4-F-Bzl)Gly][N(4-F-Bzl)Gly][Nlys][N(4-F-Bzl)Gly][N(4-F-Bzl)Gly]-NH2)	23
C[C@@H](c1ccccc1)N(CC(N)=O)C(=O)CN(C(=O)CN(CCCCN)C(=O)CN(C(=O)CN(C(=O)CN(CCCCN)C(=O)CN(C(=O)CN(C(=O)CN(CCCCN)C(=O)CN(C(=O)CN(C(=O)CNCCCCN)[C@@H](C)c1ccccc1)[C@@H](C)c1ccccc1)[C@@H](C)c1ccccc1)[C@@H](C)c1ccccc1)[C@@H](C)c1ccccc1)[C@@H](C)c1ccccc1)[C@@H](C)c1ccccc1 (H-[Nlys][Nspe][Nspe][Nlys][Nspe][Nspe][Nlys][Nspe][Nspe][Nlys][Nspe][Nspe]-NH2)	10
C[C@@H](c1ccccc1)N(CC(N)=O)C(=O)CN(C(=O)CN(CCCCCCN)C(=O)CN(C(=O)CN(C(=O)CN(CCCCCCN)C(=O)CN(C(=O)CN(C(=O)CN(CCCCCCN)C(=O)CN(C(=O)CN(C(=O)CNCCCCCCN)[C@@H](C)c1ccccc1)[C@@H](C)c1ccccc1)[C@@H](C)c1ccccc1)[C@@H](C)c1ccccc1)[C@@H](C)c1ccccc1)[C@@H](C)c1ccccc1)[C@@H](C)c1ccccc1 (H-[Gly(N-(CH2)6NH2)][Nspe][Nspe][Gly(N-(CH2)6NH2)][Nspe][Nspe][Gly(N-(CH2)6NH2)][Nspe][Nspe][Gly(N-(CH2)6NH2)][Nspe][Nspe]-NH2)	12
N=C(N)NCCCCNCC(=O)N(CC(=O)N(CC(=O)N(CCCCNC(=N)N)CC(=O)N(CC(=O)N(CC(=O)N(CCCCNC(=N)N)CC(=O)N(CC(=O)N(CC(=O)N(CCCCNC(=N)N)CC(=O)N(CC(=O)N(CC(N)=O)Cc1cccc(F)c1)Cc1cccc(F)c1)Cc1cccc(F)c1)Cc1cccc(F)c1)Cc1cccc(F)c1)Cc1cccc(F)c1)Cc1cccc(F)c1)Cc1cccc(F)c1	14
NCCCCNCC(=O)N(CC(=O)N(CC(=O)N(CCCCN)CC(=O)N(CC(=O)N(CC(=O)N(CCCCN)CC(=O)N(CC(=O)N(CC(N)=O)Cc1ccccc1)Cc1ccccc1)Cc1ccccc1)Cc1ccccc1)Cc1ccccc1)Cc1ccccc1	4

Give a short answer stating reported selectivity ratio for C[C@@H](c1ccccc1)N(CC(N)=O)C(=O)CN(C(=O)CN(CCCCCCN)C(=O)CN(C(=O)CN(C(=O)CN(CCCCCCN)C(=O)CN(C(=O)CN(C(=O)CNCCCCCCN)[C@@H](C)c1ccccc1)[C@@H](C)c1ccccc1)[C@@H](C)c1ccccc1)[C@@H](C)c1ccccc1)[C@@H](C)c1ccccc1 (H-[Gly(N-(CH2)6NH2)][Nspe][Nspe][Gly(N-(CH2)6NH2)][Nspe][Nspe][Gly(N-(CH2)6NH2)][Nspe][Nspe]-NH2) .
33

Provide only the value of recorded selectivity ratio for C[C@@H](c1ccccc1)N(CC(N)=O)C(=O)CN(C(=O)CN(CCN)C(=O)CN(C(=O)CN(C(=O)CN(CCN)C(=O)CN(C(=O)CN(C(=O)CN(CCN)C(=O)CN(C(=O)CN(C(=O)CNCCN)[C@@H](C)c1ccccc1)[C@@H](C)c1ccccc1)[C@@H](C)c1ccccc1)[C@@H](C)c1ccccc1)[C@@H](C)c1ccccc1)[C@@H](C)c1ccccc1)[C@@H](C)c1ccccc1 (H-[Gly(N-2-aminoethyl)][Nspe][Nspe][Gly(N-2-aminoethyl)][Nspe][Nspe][Gly(N-2-aminoethyl)][Nspe][Nspe][Gly(N-2-aminoethyl)][Nspe][Nspe]-NH2)
13

# return recorded selectivity ratio for entry C[C@@H](c1ccccc1)N(CC(N)=O)C(=O)CN(C(=O)CN(CCCCN)C(=O)CN(C(=O)CN(C(=O)CNCCCCN)[C@@H](C)c1ccccc1)[C@@H](C)c1ccccc1)[C@@H](C)c1ccccc1 (H-[Nlys][Nspe][Nspe][Nlys][Nspe][Nspe]-NH2)
1
